Item-by-item account of % CR (cross-reactivity = IC50MDMA/IC50CR x 100)
# System: antiserum raised to immunogen 7 (IgG fraction)
# experiment_description: MDMA competitive ELISA (microtiter plate)
# Assay type: binding, sheep
# condition_set: Hapten 7-HRP; Trial 1; relative to MDMA 100
metric_name: % CR (cross-reactivity = IC50MDMA/IC50CR x 100) (%)

compound | tested_on | modifier | value_measured
C[C@H](N)Cc1ccccc1 | antiserum raised to immunogen 7 (IgG fraction) | = | 0.03
CN[C@@H](C)[C@H](O)c1ccccc1 [(−)-Ephedrine] | antiserum raised to immunogen 7 (IgG fraction) | < | 0.017
CC(N)Cc1ccc2c(c1)OCO2 (stereo not drawn) | antiserum raised to immunogen 7 (IgG fraction) | = | 5.7
CN[C@@H](C)Cc1ccccc1 | antiserum raised to immunogen 7 (IgG fraction) | = | 0.15
CNC(C)Cc1ccc2c(c1)OCO2 (stereo not drawn) | antiserum raised to immunogen 7 (IgG fraction) | = | 100
CN[C@H](C)[C@@H](O)c1ccccc1 [(+)-Ephedrine] | antiserum raised to immunogen 7 (IgG fraction) | < | 0.017
